# assay-procedure: Human liver microsome stability test
# Type: in vitro ADME
# assay-setup: human liver microsomes, pH 7.4, 1 μM test compound, read-out: HLM (human liver microsome stability test, clearance)

# line-notation, microsomal CLint at 1 μM, µL/min/mg
measured = [
    ("O=S(=O)(c1cn(CCF)cn1)n1ccc2ncc(-c3cn[nH]c3)nc21", 1),
]

----------
# System: KG1 leukemia cell line harboring FGFR1OP-FGFR1 fusion
# assay-procedure: Cell proliferation assay in KG1 cells (SRB or MTT, 72 h)
# Assay type: cell-based
# assay-setup: Homo sapiens, KG-1, mean ± SD from two separate experiments, read-out: KG1 IC50 (antiproliferation activity)
pIC50: −log10 of the molar value.

# line-notation, pIC50
data = [
    ("O=S(=O)(c1c[nH]cn1)n1ccc2ncc(-c3cn[nH]c3)nc21", 6.73),
    ("CCn1cnc(S(=O)(=O)n2ccc3ncc(-c4cn[nH]c4)nc32)c1", 7.76),
    ("O=S(=O)(c1cn(CCF)cn1)n1ccc2ncc(-c3cn[nH]c3)nc21", 7.54),
    ("Cn1cnc(S(=O)(=O)n2ccc3ncc(-c4cn[nH]c4)nc32)c1", 7.01),
]
